Entry source: patent US8268823B2

System: sodium channel
Assay type: binding, rat
Conditions: Table 5; Synaptosome data; read-out: [3H]BTX-B IC50
Assignment: determine reported pIC50 for the given compounds.
One number for each entry, as −log10 of the molar value.

Reference set, count: 4
# compound, pIC50
records = [
    ("Nc1nnc(-c2cccc(Cl)c2Cl)c(N)n1 [Example 1, reference compound]", 4.12),
    ("Cn1nc(-c2cc(Cl)cc(Cl)c2Cl)c(N)nc1=N [Example 32]", 5.72),
    ("N=c1nc(N)c(-c2cccc(Cl)c2Cl)nn1Cc1ccoc1 [Example 30]", 5.59),
    ("CCCn1nc(-c2cc(Cl)cc(Cl)c2Cl)c(N)nc1=N [Example 34]", 6.30),
]

Value sought for every listed compound: pIC50.
1. N=c1nc(N)c(-c2cccc(Cl)c2Cl)nn1CCO [Example 5]
2. Cn1nc(-c2cccc(Cl)c2Cl)c(N)nc1=N [Example 2]
3. N=c1nc(N)c(-c2cccc(Cl)c2Cl)nn1CCC(F)(F)F [Example 39]
4. CCCn1nc(-c2cccc(Cl)c2Cl)c(N)nc1=N [Example 6]
5. N=c1nc(N)c(-c2cccc(Cl)c2Cl)nn1Cc1ccsc1 [Example 29]

Ans:
5.77
5.14
5.80
5.66
5.66

Q: Quick one: pIC50 of Nc1nnc(-c2cc(Cl)cc(Cl)c2Cl)c(N)n1 [Example 31] ?
Ans: 4.66
